# assay.conditions: buffer; pH 7.4; 200.0 µM
Assignment: determine reported solubility kinetic for the given compounds.

Examples from the recorded data:
CC(C)Cn1c(S(=O)(=O)O)nc2ccccc21    > 38.1 µg/mL
O=C(C1CCCN(S(=O)(=O)c2ccccc2)C1)N1CCCCC1 (configuration not stated)    50.4 µg/mL
CCc1ccc(C2CC(=O)N(c3cccc(F)c3)C3=C2C(=O)OC3)cc1 (configuration not stated)    9.6 µg/mL
NC(=O)C1CCCN1 (configuration not stated)    > 17.1 µg/mL
Cc1ccc(-c2c(C(=O)O)c3ccccc3[nH]c2=O)cc1    > 41.9 µg/mL
CC(=O)Oc1ccc(/C=C/c2nc3ccccc3c(=O)o2)cc1    < 0.7 µg/mL
CCC1CCCCN1CC(=O)c1c(C)[nH]c2ccc(OC)cc12 (configuration not stated)    35 µg/mL
Cc1cccc(C(C)C)c1NS(=O)(=O)c1cn(C)nc1C    > 46.1 µg/mL
C=CCc1c(C)c(C#N)c2nc3ccccc3n2c1N1CCCCC1    < 0.2 µg/mL
CCCOc1ccc(S(=O)(=O)Nc2ccccn2)c2ccccc12    < 0.4 µg/mL

Provide the reported solubility kinetic of each entry below, same order.
1. CCCS(=O)(=O)N1CCCC(C(=O)NCC(OC)OC)C1 (configuration not stated)
2. COC(=O)c1c(C)[nH]c(C(=O)OCC(=O)c2ccc(C)s2)c1C

45.2 µg/mL
5.7 µg/mL

----------
# assay.conditions: buffer; pH 7.4; 200.0 µM
For each record, write down the corresponding solubility kinetic.
Answers are plain numbers, in µg/mL.

CCCn1ccc(O)c(Cc2ccc(Cl)cc2)c1=O    7.3

Need solubility kinetic of COc1cc(OC)cc(C(=O)Nc2ccc(Nc3ccccc3)cc2)c1 , thanks.
2.5

----------
Could you please report measured log10(solubility kinetic) for the items listed next?
# assay.conditions: buffer; pH 7.4; 200.0 µM
Log10 applied to solubility kinetic; unit prior to transform: µg/mL.

The cases that follow already have their log10(solubility kinetic) on record.
Cc1cccc(N2CCN(C(=O)c3ccc(NC(=O)CC4SC(N5CCCC5)=NC4=O)cc3)CC2)c1C (stereo not given)    1.48
CCOC(=O)C1CCN(CC(O)COCc2ccc(Cl)cc2)CC1.Cl (stereo not given)    1.76
Cc1onc(-c2c(F)cccc2Cl)c1C(=O)c1ccc(F)cc1    0.96
CCOc1ccc(NC(=O)c2ccccc2NC(=O)CNC2CCCC(C)C2C)cc1 (stereo not given)    0.34
O=S(=O)(Nc1cccnc1Cl)c1ccc(-c2ccccc2)cc1    1.68
CN(Cc1ccccc1)S(=O)(=O)c1cc2c3c(c1)CCN3C(=O)CC2    0.56

Count: 5. Required value per item: log10(solubility kinetic).
1. CCCn1cnc2cc(NCc3ccccc3O)ccc21
2. COc1cccc(Oc2c(C)oc3c(CN4CCCC4)c(O)ccc3c2=O)c1
3. O=C1Nc2ccccc2C1=Nc1ccc(Cl)cc1
4. Cc1ccc(C(=O)NCCc2ccc(F)cc2)s1
5. CN(C(=O)C(Cl)Cl)C1CC2C=CC1C2 (stereo not given)

1: 1.45; 2: 1.61; 3: 1.13; 4: 0.75; 5: 1.49

----------
For each record, write down the corresponding solubility kinetic.
# assay.conditions: buffer; pH 7.4; 200.0 µM
One number for each entry, in µg/mL.

Cc1cccc(CCNCc2cc3cccc(C)c3[nH]c2=O)c1    45.9
COc1cc2cc(NC(C)=O)cc(NCc3ccccc3)c2cc1OC    4.2
COC(=O)c1ccc(S(=O)(=O)c2ccc(Cl)cc2)c(N)c1    1.2
Cc1ccc(C)n1-c1cccc(C(=O)Nc2ccccc2)c1    13.9
Cc1cccc(N2CCN(C(=O)c3cccs3)CC2)c1C    23.8
CCN1CCC(N2CCN(c3ccc(F)cc3)CC2)CC1    35.5
COc1ccccc1NCCC(=O)OCC(=O)Nc1cc([N+](=O)[O-])ccc1F    51.8
c1ccc(Nc2ccnc(Nc3ccccc3)n2)cc1    6.7

Now, please, on to the next molecule.
Which solubility kinetic value is on record for Cc1ccc(NC(/C=C/N(C)C)=C/C(=O)C(F)(F)F)c(C)c1 ?
37.8

----------
# assay.conditions: buffer; pH 7.4; 200.0 µM
parameter.measured: solubility kinetic

// below: answered compounds
Cl.c1ccc2c(c1)CCCC2C1=NCCN1 (stereo unspecified)    > 0.0355 mg/mL
COc1ccc(C(CNS(=O)(=O)c2ccc(NC(C)=O)c(OC)c2)N2CCCCC2)cc1.Cl (stereo unspecified)    > 0.0747 mg/mL

Your task in this section: give solubility kinetic for each listed record.
1. CC(C)C(NS(=O)(=O)c1cccc(C(F)(F)F)c1)C(=O)O (stereo unspecified)
2. O=[N+]([O-])c1ccc(-n2ccnc2)cc1
3. CCOc1ccc(CNc2ccc(N3CCCC3)cc2)cc1
4. O=S(=O)(c1ccccc1)N1CN(c2ccc(F)cc2F)c2nc3ccccc3nc21

> 0.0488 mg/mL
> 0.0284 mg/mL
0.0031 mg/mL
0.0038 mg/mL

----------
# assay.conditions: buffer; pH 7.4; 200.0 µM
parameter.measured: solubility kinetic

Here is how some molecules turned out for solubility kinetic.
C=CCNC(=O)COc1ccc(Oc2ccccc2)cc1    > 42.5 µg/mL
Nc1c(C(=O)CSc2ccccn2)c(=O)[nH]c(=O)n1C1CC1    24.6 µg/mL
N#CCCN(Cc1cccnc1)C(=S)NCc1ccco1    > 45.1 µg/mL
Cc1ccc(CNC(=O)CSc2nc3ccccc3c(=O)n2CC2CCCO2)cc1 (stereo unspecified)    4.5 µg/mL
CN(C)c1cc[n+](CC(=O)Nc2ccc(OC(F)F)cc2)cc1.[Cl-]    > 53.7 µg/mL

Which solubility kinetic reading was recorded for the molecule Cn1c(COc2ccccc2O)[n+](C)c2ccccc21.[Br-] ?
> 52.4 µg/mL

----------
# assay.conditions: buffer; pH 7.4; 200.0 µM
Quick rule for you: solubility kinetic at 30 µg/mL or higher means Yes, lower means No.

// inclusive: solubility kinetic at least 30 µg/mL? input: COc1ccc(C(=O)Nc2c(C)cc(C)cc2C)cc1OC
Yes

Check this compound for solubility kinetic at or above 30 µg/mL: O=C(Nc1ccccc1)N(C1=NCCC1)c1ccccc1
No

----------
# assay.conditions: buffer; pH 7.4; 200.0 µM
parameter.measured: log10(solubility kinetic) (log10 of the value in µg/mL)
In our notation, the value equals log10 of solubility kinetic in µg/mL.

CCCCCCC1CC(=O)NC(=O)N1 (centres undefined)    1.44

Batch request: log10(solubility kinetic) for each of the following compounds.
1. O=C(NCc1ccc2c(c1)CCO2)Nc1cccc(C(F)(F)F)c1
2. Cc1cccc2sc(NC(=O)Cn3c(C)csc3=O)nc12
3. Cc1cc2cc(CNC(=O)Cc3ccc([N+](=O)[O-])cc3)ccc2[nH]1
4. CCN(CC)C(=O)c1ccc(S(=O)(=O)c2ccccc2)cc1
5. Cc1ccc(N(CC(=O)N2CCN(Cc3ccccc3)CC2)S(C)(=O)=O)cc1C
6. CN(C)c1c(F)cc(C(=O)NC(=O)NCc2cccnc2)cc1F

1. 0.00
2. 0.71
3. 0.84
4. 1.53
5. 1.71
6. 0.60

Batch lookup, log10(solubility kinetic) per entry.
1. Cc1nsc2nc3c(F)c(F)c(F)c(F)c3cc12
2. O=[N+]([O-])c1ccc(N2CCN(c3cccc(Cl)c3)CC2)nc1
3. Cc1ccc(S(=O)(=O)N2CCN(Cc3ccco3)CC2)cc1C

[0.64, -0.40, 1.12]

----------
# assay.conditions: buffer; pH 7.4; 200.0 µM
parameter.measured: solubility kinetic (µg/mL)
Numbers only, in µg/mL.

Consider the following illustrative entries.
C=CCOn1c(=O)c(-c2ccc(OCC)cc2)[n+]([O-])c2ccccc21    6.3
CN(CCO)c1nc(N)c2c(N)nc3c(c2c1C#N)CC(=O)N3C1CCCC1    10.7
Cc1c(C#N)c2ccccc2n1C    19.9

Please give solubility kinetic, item by item, for the list that follows.
1. Cc1cccc2cc(C#N)c(NCc3ccccc3)nc12
2. CSc1ncccc1C(=O)Nc1cccc(S(=O)(=O)N2CCCCCC2)c1
3. COCCNC(=S)N1CCN(S(=O)(=O)c2ccc(Cl)s2)CC1

[11.4, 11.2, 11.4]

For each listed entry, give its solubility kinetic.
1. COc1ccc(C(=O)NC(=S)NC(C)c2ccccc2)cc1 (stereo not given)
2. CCOC(=O)c1csc(-c2ccc([N+](=O)[O-])cc2)n1
3. Cc1cc(C(=O)Nc2nccs2)c2cc(F)ccc2n1

1: 2.6; 2: 5.6; 3: 3.1

Go through the items and report each one's solubility kinetic.
1. Cc1nc(SCc2ccc(C(=O)O)cc2)c2c(C)c(C)sc2n1
2. CC(C(=O)Nc1ccc(Cl)cc1)N(C)Cc1cccs1 (stereo not given)
3. Nc1ccc(-n2cc(-c3ccccc3)[nH]c2=S)cc1
4. O=C(c1ccc2oc(CCc3ccccc3)nc2c1)N1CC[C@H](O)C1
5. Nc1nc2ccccc2cc1S(=O)(=O)c1ccccc1
6. CC(=O)Nc1ccc(C(=O)NCC2CCCCC2)cc1

1. 49.5
2. 13.4
3. 12.6
4. 41.1
5. 1.1
6. 36.4

Please give solubility kinetic for each item listed below.
1. CCC(=O)c1c[nH]c(C(=O)NCc2ccccc2OC)c1
2. NCCc1c(Cc2ccccc2)[nH]c2ccccc12
3. CC12CCC(=O)N1C(C(=O)NCCc1ccc(F)cc1)CS2 (stereo not given)
4. Oc1c(Cl)cc(Cl)cc1C=Nc1ccc(N2CCOCC2)cc1
5. CCOC(=O)C1=C(C)NC(C)=C(C(=O)OCC)C1c1ccco1
6. CCOC(=O)c1sc2nc(C)nc(N3CCN(S(=O)(=O)c4ccccc4)CC3)c2c1C
7. O=C(Nc1ccccc1Cl)c1cc(=O)c2ccccc2o1
8. CCn1c(=O)c([N+](=O)[O-])c(Cl)c2ccccc21

2.8
34.5
46.3
8.1
8.8
2.5
0.7
3.3
